Data provenance: ChEMBL document CHEMBL1139498

# target.system: Transient receptor potential cation channel subfamily V member 1 (Homo sapiens, UniProt Q8NER1)
# Sequence (Q8NER1 whole entry): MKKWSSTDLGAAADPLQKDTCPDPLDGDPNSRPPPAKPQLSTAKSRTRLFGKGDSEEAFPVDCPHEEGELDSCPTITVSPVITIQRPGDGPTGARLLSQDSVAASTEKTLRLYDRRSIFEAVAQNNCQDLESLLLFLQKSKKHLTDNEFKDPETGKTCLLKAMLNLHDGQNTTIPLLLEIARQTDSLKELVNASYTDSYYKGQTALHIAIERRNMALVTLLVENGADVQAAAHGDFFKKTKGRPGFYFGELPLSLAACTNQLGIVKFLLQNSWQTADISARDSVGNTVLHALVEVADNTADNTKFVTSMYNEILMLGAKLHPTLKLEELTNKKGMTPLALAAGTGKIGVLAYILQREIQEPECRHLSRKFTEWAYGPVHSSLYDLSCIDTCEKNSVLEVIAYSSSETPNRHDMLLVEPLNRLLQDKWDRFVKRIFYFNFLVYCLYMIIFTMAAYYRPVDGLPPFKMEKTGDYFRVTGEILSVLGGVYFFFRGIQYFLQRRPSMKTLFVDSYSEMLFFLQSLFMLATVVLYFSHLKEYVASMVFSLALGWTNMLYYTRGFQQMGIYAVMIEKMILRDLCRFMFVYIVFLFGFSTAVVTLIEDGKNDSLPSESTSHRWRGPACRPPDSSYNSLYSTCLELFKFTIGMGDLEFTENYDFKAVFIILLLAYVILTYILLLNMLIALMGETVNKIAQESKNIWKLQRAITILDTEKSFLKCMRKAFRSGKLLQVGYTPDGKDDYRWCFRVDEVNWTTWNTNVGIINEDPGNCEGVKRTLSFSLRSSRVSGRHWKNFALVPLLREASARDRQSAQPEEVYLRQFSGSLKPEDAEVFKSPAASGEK
# method: Inhibition of pH-induced calcium uptake by transient receptor potential vanilloid type 1 expressed in CHO cells
# Type: functional, cell-based
pIC50: −log10 of the molar value.
Assign 1.0 whenever pIC50 does not fall below 7; assign 0.0 whenever it does.

Is it the case that O=C(/C=C/c1ccc(O)cc1)Nc1ccc2c(c1)OCCO2 has pIC50 reaching or exceeding 7? 0.0

Another: CC(C)(C)c1ccc(/C=C/C(=O)Nc2ccc3c(c2)NCCO3)cc1 0.0

Consider next the compound CC(C)(C)c1ccc(/C=C/C(=O)Nc2ccc3c(c2)CCCC3)cc1 in the same way. 0.0

Item: O=C(/C=C/c1ccc(C(F)(F)F)nc1N1CCOCC1)Nc1ccc2c(c1)OCCO2 1.0

Repeat with Cc1ccc(/C=C/C(=O)Nc2ccc3c(c2)OCCO3)cc1 0.0

Also need O=C(/C=C/c1ccc(C(F)(F)F)nc1)Nc1ccc2c(c1)OCCO2 , thanks. 0.0

Next up: CC(C)(C)c1ccc(/C=C/C(=O)Nc2ccc3c(c2)OCO3)cc1 0.0

// next record O=C(/C=C/c1ccc(F)cc1)Nc1ccc2c(c1)OCCO2 0.0

Similarly, CC(C)(C)c1ccc(/C=C/C(=O)Nc2ccc3c(c2)OCCO3)c(C(=O)O)c1 ? 0.0

Repeat with O=C(/C=C/c1ccc(C(F)(F)F)nc1N1CCOCC1)Nc1ccc2cccnc2c1 1.0

Please do the same for O=C(/C=C/c1ccc(C(F)(F)F)nc1N1CCCCC1)Nc1ccc2cccnc2c1 as well. 1.0

Please answer likewise for O=C(/C=C/c1ccccc1)Nc1ccc2c(c1)OCCO2 0.0

Please give the result for CC(C)(C)c1ccc(/C=C/C(=O)Nc2ccc3c(c2)OCCN3)cc1 too. 1.0

Moving on to COc1cccc(NC(=O)/C=C/c2ccc(C(C)(C)C)cc2)c1 0.0

Please give the result for CC(C)(C)c1ccc(/C=C/C(=O)Nc2ccc3cccnc3c2)cc1 too. 1.0
